Collected Fold selectivity (mGlu3 vs. mGlu5) values appear next to each entry.
assayed.system: rat mGlu5 (Rattus norvegicus (Rat), UniProt P31424)
Sequence (P31424 21-1203): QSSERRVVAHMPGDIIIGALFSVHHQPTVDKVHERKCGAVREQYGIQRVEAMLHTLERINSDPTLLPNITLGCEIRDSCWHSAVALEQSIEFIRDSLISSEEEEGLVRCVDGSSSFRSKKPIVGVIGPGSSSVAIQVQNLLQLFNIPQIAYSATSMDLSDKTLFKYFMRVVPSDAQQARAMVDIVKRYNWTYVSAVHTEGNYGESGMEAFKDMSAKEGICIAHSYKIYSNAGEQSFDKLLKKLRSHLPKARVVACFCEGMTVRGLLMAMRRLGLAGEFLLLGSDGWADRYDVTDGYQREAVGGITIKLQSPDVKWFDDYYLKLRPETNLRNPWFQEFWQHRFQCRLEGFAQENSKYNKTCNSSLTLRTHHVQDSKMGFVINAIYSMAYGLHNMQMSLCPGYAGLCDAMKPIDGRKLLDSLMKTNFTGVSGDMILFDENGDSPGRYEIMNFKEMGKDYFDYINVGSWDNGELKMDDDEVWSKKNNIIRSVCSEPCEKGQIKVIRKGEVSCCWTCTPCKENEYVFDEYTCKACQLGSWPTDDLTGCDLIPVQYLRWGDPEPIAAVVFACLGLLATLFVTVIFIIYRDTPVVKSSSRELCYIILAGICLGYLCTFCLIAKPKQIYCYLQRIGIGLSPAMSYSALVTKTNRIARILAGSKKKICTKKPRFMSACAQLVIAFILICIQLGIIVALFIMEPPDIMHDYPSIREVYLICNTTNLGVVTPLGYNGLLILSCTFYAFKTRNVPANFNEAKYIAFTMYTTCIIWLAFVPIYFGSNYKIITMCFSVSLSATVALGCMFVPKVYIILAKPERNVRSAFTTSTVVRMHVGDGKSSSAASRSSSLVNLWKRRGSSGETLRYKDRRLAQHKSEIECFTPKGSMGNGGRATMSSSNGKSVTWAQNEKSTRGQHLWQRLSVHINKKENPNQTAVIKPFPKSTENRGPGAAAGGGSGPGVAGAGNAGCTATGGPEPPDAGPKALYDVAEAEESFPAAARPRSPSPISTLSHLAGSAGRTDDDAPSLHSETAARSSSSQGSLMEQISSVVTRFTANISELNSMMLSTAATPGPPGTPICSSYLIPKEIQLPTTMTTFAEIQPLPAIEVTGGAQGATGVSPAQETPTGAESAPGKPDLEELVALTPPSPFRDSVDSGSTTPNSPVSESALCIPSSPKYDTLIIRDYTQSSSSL
method: mGlu5 Ca2+ flux assay
Assay type: cell-based
experimental.context: ratio of rat mGlu5 EC50 or IC50 to rat mGlu3 IC50

structure.smiles.string: C[C@@H]1CN(c2ccc(F)cc2)C(=O)c2cc(CNc3ccc(F)c(F)c3)nn21
assayed.system: rat mGlu5 (Rattus norvegicus (Rat), UniProt P31424)
Fold selectivity (mGlu3 vs. mGlu5): >19
//
structure.smiles.string: O=C1c2cc(CNc3ccc(F)cn3)nn2CCN1c1ccc(F)cc1
assayed.system: rat mGlu5 (Rattus norvegicus (Rat), UniProt P31424)
Fold selectivity (mGlu3 vs. mGlu5): >6.8
//
structure.smiles.string: COc1ccc(N(C)Cc2cc3n(n2)CCN(c2ccc(OC)cc2)C3=O)cc1
assayed.system: rat mGlu5 (Rattus norvegicus (Rat), UniProt P31424)
Fold selectivity (mGlu3 vs. mGlu5): >21
//
structure.smiles.string: O=C1c2cc(CNc3ccc(OC(F)F)cc3F)nn2CCN1c1cc(Cl)ccn1
assayed.system: rat mGlu5 (Rattus norvegicus (Rat), UniProt P31424)
Fold selectivity (mGlu3 vs. mGlu5): >17
//
structure.smiles.string: CN(Cc1cc2n(n1)CCN(c1ccc(F)cc1)C2=O)c1cc(F)cc(F)c1
assayed.system: rat mGlu5 (Rattus norvegicus (Rat), UniProt P31424)
Fold selectivity (mGlu3 vs. mGlu5): >15
//
structure.smiles.string: COc1ccc(N(C)Cc2cc3n(n2)CCN(c2ccccc2Cl)C3=O)cc1
assayed.system: rat mGlu5 (Rattus norvegicus (Rat), UniProt P31424)
Fold selectivity (mGlu3 vs. mGlu5): >38
//
structure.smiles.string: O=C1c2cc(CNc3ncccc3F)nn2CCN1c1ccc(F)cc1
assayed.system: rat mGlu5 (Rattus norvegicus (Rat), UniProt P31424)
Fold selectivity (mGlu3 vs. mGlu5): >14
//
structure.smiles.string: COc1ccc(N(C)Cc2cc3n(n2)CCN(c2ccc(Cl)c(F)c2)C3=O)cc1
assayed.system: rat mGlu5 (Rattus norvegicus (Rat), UniProt P31424)
Fold selectivity (mGlu3 vs. mGlu5): >23
//
structure.smiles.string: O=C1c2cc(CNc3cccc(F)c3F)nn2CCN1c1ccc(F)cc1
assayed.system: rat mGlu5 (Rattus norvegicus (Rat), UniProt P31424)
Fold selectivity (mGlu3 vs. mGlu5): 4.06
